# assayedTarget: human GLP-1 receptor (Homo sapiens, UniProt P43220)
# Construct: HA (N); expressed in transfected cells
# Sequence (P43220 24-463): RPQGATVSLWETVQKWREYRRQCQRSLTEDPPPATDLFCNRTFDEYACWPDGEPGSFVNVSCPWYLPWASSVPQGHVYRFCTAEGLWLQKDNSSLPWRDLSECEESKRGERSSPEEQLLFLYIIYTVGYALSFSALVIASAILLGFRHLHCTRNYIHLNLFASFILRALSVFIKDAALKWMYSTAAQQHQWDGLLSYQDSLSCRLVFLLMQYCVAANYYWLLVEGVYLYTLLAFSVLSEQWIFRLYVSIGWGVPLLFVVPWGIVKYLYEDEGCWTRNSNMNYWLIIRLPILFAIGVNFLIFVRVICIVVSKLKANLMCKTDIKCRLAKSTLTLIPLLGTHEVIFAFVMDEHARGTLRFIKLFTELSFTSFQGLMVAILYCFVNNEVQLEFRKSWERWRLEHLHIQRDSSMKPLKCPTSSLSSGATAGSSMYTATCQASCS
# runDescription: GLP-1 receptor-mediated agonist activity: cAMP level in hGLP-1R/HEK293 cell line (HTRF)
# Assay type: cell-based
# experimentalConditions: cAMP levels in hGLP-1R/HEK293 cell line; Table 1; read-out: determined EC50
recordedMetric: EC50 (pM)
// note: answer is a bare numeric in pM

{"columns": ["molecule", "EC50 / pM"],
 "data": [
  ["CCCOc1cc(C(=O)O)cc2c1nc(CN1CCC(c3cccc(OCc4ccc(C#N)cc4F)n3)CC1)n2C[C@@H]1CCO1", 6.4],
  ["COc1cc(C(=O)O)cc2c1nc(CN1CCC(c3ccccc3OCc3ccc(Cl)cc3F)CC1)n2C[C@@H]1CCO1", 43.4],
  ["COc1cc(C(=O)O)cc2c1nc(CN1CCC(c3cccc(OCc4ccc(Cl)c5c4OCC5)n3)CC1)n2C[C@@H]1CCO1", 3.3]
]}

Entry COc1cc(Cl)ccc1C1(C)Oc2cccc(C3CCN(Cc4nc5c(OC)cc(C(=O)O)cc5n4C[C@@H]4CCO4)CC3)c2O1 (stereo partly drawn) , system human GLP-1 receptor (Homo sapiens, UniProt P43220): what EC50 was measured? 2.8

Entry [2H]C([2H])([2H])C([2H])([2H])Oc1cc(C(=O)O)cc2c1nc(CN1CCN(c3cccc4c3OC(C)(c3ccc(Cl)cc3F)O4)C=N1)n2C[C@@H]1CCO1 (stereo partly drawn) , system human GLP-1 receptor (Homo sapiens, UniProt P43220): what EC50 was measured? 4.5

Entry `COc1cc(C(F)(F)F)ccc1COc1cccc(C2CCN(Cc3nc4c(OC)cc(C(=O)O)cc4n3C[C@@H]3CCO3)CC2)n1` , system human GLP-1 receptor (Homo sapiens, UniProt P43220): what EC50 was measured? 1.6

---

# assayedTarget: human GLP-1 receptor (Homo sapiens, UniProt P43220)
# Construct: HA (N); expressed in transfected cells
# runDescription: GLP-1 receptor-mediated agonist activity: cAMP level in hGLP-1R/HEK293 cell line (HTRF)
# Format: cell-based
# experimentalConditions: cAMP levels in hGLP-1R/HEK293 cell line; Table 1; read-out: determined EC50
// reported EC50 for each item listed
// note: answer is a bare numeric in pM

Please review the entries below; each comes with its answer.
{"columns": ["molecule", "valueReported"],
 "data": [
  ["[2H]C([2H])([2H])C([2H])([2H])Oc1cc(C(=O)O)cc2c1nc(CN1CCN(c3cccc4c3OC(C)(c3ccc(F)cc3F)O4)C=N1)n2C[C@@H]1CCO1 (stereo partly shown)", 21.2],
  ["[2H]C([2H])([2H])C([2H])([2H])Oc1cc(C(=O)O)cc2c1nc(CN1CCC(c3cccc4c3OC(C)(c3ccc(Cl)cc3F)O4)CC1)n2C[C@@H]1CCO1 (stereo partly shown)", 3],
  ["[2H]C([2H])([2H])Oc1cc(C(=O)O)cc2c1nc(CN1CCN(c3cccc(OCc4ccc(C#N)cc4F)n3)C=N1)n2C[C@@H]1CCO1", 4],
  ["COc1cc(C(=O)O)cc2c1nc(CN1CCC(c3cccc(OCc4ccc(C(F)(F)F)cc4F)n3)CC1)n2C[C@@H]1CCO1", 8.7],
  ["COc1cc(C(=O)O)cc2c1nc(CN1CCN(c3cccc4c3OC(C)(c3ccc(Cl)cc3F)O4)C=N1)n2C[C@@H]1CCO1 (stereo partly shown)", 15.2],
  ["CCOc1cc(C(=O)O)cc2c1nc(CN1CCC(c3cccc4c3OC(C)(c3ccc(C(F)(F)F)cc3F)O4)CC1)n2C[C@@H]1CCO1 (stereo partly shown)", 7.7],
  ["[2H]C([2H])([2H])Oc1cc(C(=O)O)cc2c1nc(CN1CCN(c3cccc4c3OC(C)(c3ccc(Cl)cn3)O4)C=N1)n2C[C@@H]1CCO1 (stereo partly shown)", 27.3],
  ["COc1cc(C(=O)O)cc2c1nc(CN1CCC(c3ccccc3OCc3ccc(Cl)c4c3OCC4)CC1)n2C[C@@H]1CCO1", 50.9]
]}

So what's the measured EC50 for this one? [2H]C([2H])([2H])Oc1cc(C(=O)O)cc2c1nc(CN1CCN(c3cccc4c3OC(C)(c3ccc(C(F)(F)F)cc3OC)O4)C=N1)n2C[C@@H]1CCO1 (stereo partly shown) 7.5

So what's the measured EC50 for this one? CCOc1cc(C(=O)O)cc2c1nc(CN1CCN(c3cccc4c3OC(C)(c3ccc(F)cc3F)O4)C=N1)n2C[C@@H]1CCO1 (stereo partly shown) 28.9

So what's the measured EC50 for this one? CCOc1cc(C(=O)O)cc2c1nc(CN1CCN(c3cccc4c3OC(C)(c3ccc(Cl)c(F)c3F)O4)C=N1)n2C[C@@H]1CCO1 (stereo partly shown) 11.5

So what's the measured EC50 for this one? [2H]C([2H])([2H])Oc1cc(C(=O)O)cc2c1nc(CN1CCC(c3cccc4c3OC(C)(c3ccc(Cl)cc3F)O4)CC1)n2C[C@@H]1CCO1 (stereo partly shown) 6.5

So what's the measured EC50 for this one? `COc1cc(C(=O)O)cc2c1nc(CN1CCN(c3cccc(OCc4ccc(C(F)(F)F)cc4F)n3)C=N1)n2C[C@@H]1CCO1` 8.5
